These entries and their values trace back to the supplement of paper PMC11208160.

- Experiment Summary: recombinant UMI read abundance after kanamycin selection (control-corrected) (log10(CPM+1)); higher = more efficient recombination; extreme values may be limits of the assay; sequences stand for … in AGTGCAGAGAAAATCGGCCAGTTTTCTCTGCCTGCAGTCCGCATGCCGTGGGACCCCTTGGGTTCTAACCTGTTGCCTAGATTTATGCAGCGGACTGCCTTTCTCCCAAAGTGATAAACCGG…AGGTTGGTTTCACT; site = the 11-nt donor;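 note: IS621 bridge recombinase in Escherichia coli cells against a fixed T5 target plasmid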
Property: recombinant UMI read abundance (log10)

- Sequence Input: "CAAGCAGCATGGACCGGTTTTCCCGGTAATCCGTATTTGTT (site CAAGCAGCTAC)"
  Property: "recombinant UMI read abundance (log10)"
  Endpoint Value: 0.0209
- Sequence Input: "CGAGGGCCATGGACCGGTTTTCCCGGTAATCCGTATTTGCA (site CGAGGGCCTTG)"
  Property: "recombinant UMI read abundance (log10)"
  Endpoint Value: 0.708
- Sequence Input: "GCTAAAACATGGACCGGTTTTCCCGGTAATCCGTATTTGCT (site GCCAAAACTAG)"
  Property: "recombinant UMI read abundance (log10)"
  Endpoint Value: 0
- Sequence Input: "CTGGAAACATGGACCGGTTTTCCCGGTAATCCGTATTTGCA (site TTGGAAACTTG)"
  Property: "recombinant UMI read abundance (log10)"
  Endpoint Value: 0
- Sequence Input: "CCCTGGCCATGGACCGGTTTTCCCGGTAATCCGTATTTGCC (site CCCTTGCCTGG)"
  Property: "recombinant UMI read abundance (log10)"
  Endpoint Value: 0
- Sequence Input: "CCATTCCCATGGACCGGTTTTCCCGGTAATCCGTATTTGCT (site CTATTCCCTAG)"
  Property: "recombinant UMI read abundance (log10)"
  Endpoint Value: 0
- Sequence Input: "CTAGCATCATGGACCGGTTTTCCCGGTAATCCGTATTTGAC (site CTAGGATCTGT)"
  Property: "recombinant UMI read abundance (log10)"
  Endpoint Value: 0.773
- Sequence Input: "TTGCAGCCATGGACCGGTTTTCCCGGTAATCCGTATTTGCT (site TTGCAGCCTAG)"
  Property: "recombinant UMI read abundance (log10)"
  Endpoint Value: 0.0502
- Sequence Input: "CGCATTACATGGACCGGTTTTCCCGGTAATCCGTATTTGGC (site CGCATTACTGC)"
  Property: "recombinant UMI read abundance (log10)"
  Endpoint Value: 1.28
- Sequence Input: "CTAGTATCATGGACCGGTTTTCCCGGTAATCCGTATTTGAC (site CAAGTAACTGT)"
  Property: "recombinant UMI read abundance (log10)"
  Endpoint Value: 0.0563
- Sequence Input: "TCAGAGACATGGACCGGTTTTCCCGGTAATCCGTATTTGCG (site TCCGAGACTCG)"
  Property: "recombinant UMI read abundance (log10)"
  Endpoint Value: 0.462
- Sequence Input: "TCTGCACCATGGACCGGTTTTCCCGGTAATCCGTATTTGGA (site TCTGCACCTTC)"
  Property: "recombinant UMI read abundance (log10)"
  Endpoint Value: 0.0216
- Sequence Input: "ACCGGTCCATGGACCGGTTTTCCCGGTAATCCGTATTTGCC (site ACCGGTCCTGG)"
  Property: "recombinant UMI read abundance (log10)"
  Endpoint Value: 0
- Sequence Input: "TGTACACCATGGACCGGTTTTCCCGGTAATCCGTATTTGAT (site TGTACACCTAT)"
  Property: "recombinant UMI read abundance (log10)"
  Endpoint Value: 0.00557
- Sequence Input: "GCGACGCCATGGACCGGTTTTCCCGGTAATCCGTATTTGTC (site GCGACGCCTGA)"
  Property: "recombinant UMI read abundance (log10)"
  Endpoint Value: 2.1
- Sequence Input: "CCTCATACATGGACCGGTTTTCCCGGTAATCCGTATTTGGC (site CCTTATACTGC)"
  Property: "recombinant UMI read abundance (log10)"
  Endpoint Value: 0
- Sequence Input: "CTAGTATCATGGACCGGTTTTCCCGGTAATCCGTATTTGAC (site CTAGTATCTGG)"
  Property: "recombinant UMI read abundance (log10)"
  Endpoint Value: 1.48
- Sequence Input: "CCTAATACATGGACCGGTTTTCCCGGTAATCCGTATTTGGC (site CCTAACACTGC)"
  Property: "recombinant UMI read abundance (log10)"
  Endpoint Value: 0
